Cited source for all entries: patent US10028992B2

test system: α7 integrin promoter; test: muscle cell-based assay: α7βgal+/− myoblasts/myotubes, LacZ reporter, β-galactosidase cleavage of FDG; parameters: species or system mouse; scale not given here; details: Myoblasts, 10 uM
observed property: Results in α7+/− β-galactosidase assay
Form rule: numeric answer, no unit written next to it.

## Task Tell me measured Results in α7+/− β-galactosidase assay for O=C1CCC(C(=O)N2CCSCC2)CN1Cc1ccc(Cl)cc1 (centres unmarked) [drawing 697] please.
## Result 0.4599

## Task Tell me measured Results in α7+/− β-galactosidase assay for Cc1cccc(NC(=O)CN(C)C(=O)c2ccc(-c3ccc(Cl)cc3)o2)c1 [drawing 643] please.
## Result −0.109

## Task Tell me measured Results in α7+/− β-galactosidase assay for O=C(NCCc1ccccc1)C1CCC(=O)N1C1CCCC1 (centres unmarked) [drawing 559] please.
## Result 0.245

## Task Tell me measured Results in α7+/− β-galactosidase assay for CC1(C)Cc2c(cnn2-c2cccc(F)c2)C(NC(=O)CCc2cnccn2)C1 (centres unmarked) [drawing 534] please.
## Result −0.03841

## Task Tell me measured Results in α7+/− β-galactosidase assay for O=C(NCCc1ccc(Cl)cc1)C1CCCO1 (centres unmarked) [drawing 689] please.
## Result 0.03423

###

system: α7 integrin promoter; experiment: muscle cell-based assay: α7βgal+/− myoblasts/myotubes, LacZ reporter, β-galactosidase cleavage of FDG; design: species or system mouse; details: curve fit, activity at zero concentration
observed property: Fit Zero Activity [%] (%)
Respond with the bare value in %.

## Task GET Fit Zero Activity [%] where system = α7 integrin promoter and item = O=C(NCCCn1ccnc1)/C(=C/c1cccs1)NC(=O)c1ccco1
## Result −20.4393

## Task GET Fit Zero Activity [%] where system = α7 integrin promoter and item = COc1nccc(NCc2ccccc2)c1C#N
## Result −19.7104

## Task GET Fit Zero Activity [%] where system = α7 integrin promoter and item = O=C1CCc2cc(S(=O)(=O)Nc3ccc(C(F)(F)F)cc3)cc3c2N1CC3
## Result −27.3652

## Task GET Fit Zero Activity [%] where system = α7 integrin promoter and item = COc1cc(NC(=O)CN(C)S(=O)(=O)c2ccc3c(c2)CC(C)N3C(C)=O)cc(OC)c1OC (stereo not shown)
## Result 0.4668

## Task GET Fit Zero Activity [%] where system = α7 integrin promoter and item = Cc1ccc(-c2csnn2)cc1
## Result 3.4732

## Task GET Fit Zero Activity [%] where system = α7 integrin promoter and item = O=C(Nc1ccc(Oc2cccnc2)cc1)c1ccccc1Cl
## Result 13.9023

## Task GET Fit Zero Activity [%] where system = α7 integrin promoter and item = c1ccc(CN2CCCC3(CCCN(Cc4nc(CC5CC5)no4)C3)C2)cc1 (stereo not shown)
## Result −42.0662

## Task GET Fit Zero Activity [%] where system = α7 integrin promoter and item = Cl.O=C(CN1CCOCC1)NCc1cc([N+](=O)[O-])ccc1O
## Result 10.3691

## Task GET Fit Zero Activity [%] where system = α7 integrin promoter and item = COc1ccc(O)c(/C=N/NC(=O)c2cc(O)nc3ccccc23)c1
## Result −35.6913

## Task GET Fit Zero Activity [%] where system = α7 integrin promoter and item = CN(C)/C(S)=N/c1cccc(C(F)(F)F)c1
## Result 8

## Task GET Fit Zero Activity [%] where system = α7 integrin promoter and item = Cc1cc(C(=O)Nc2cccc3ccccc23)c(C)o1
## Result −21.2671

## Task GET Fit Zero Activity [%] where system = α7 integrin promoter and item = CCc1c(C2(O)CCCCC2)[nH]c2ncccc12
## Result −29.3022

## Task GET Fit Zero Activity [%] where system = α7 integrin promoter and item = COc1ccc(S(=O)(=O)Nc2ccc(S(=O)(=O)Nc3nccs3)cc2)cc1
## Result −8.4801

## Task GET Fit Zero Activity [%] where system = α7 integrin promoter and item = O=C(CCc1ccccc1)c1nnc(-c2ccccc2)o1
## Result 1.0471

## Task GET Fit Zero Activity [%] where system = α7 integrin promoter and item = COc1cc2c(cc1OC)C(NC(=O)C(F)(F)F)C/C2=N\O (stereo not shown)
## Result 2.547

## Task GET Fit Zero Activity [%] where system = α7 integrin promoter and item = O=C(Nc1ccc(N2CCN(C(=O)c3ccccc3F)CC2)cc1)c1cncc(Br)c1
## Result 9.7776

## Task GET Fit Zero Activity [%] where system = α7 integrin promoter and item = O=C(CNC(=O)c1cccc(F)c1)N/N=C/c1cc(Br)ccc1OCc1ccccc1
## Result 3.67

## Task GET Fit Zero Activity [%] where system = α7 integrin promoter and item = Cc1nnc(NC(=O)CSc2nnc(CCNC(=O)c3ccccc3F)n2C)s1
## Result 1.0531

## Task GET Fit Zero Activity [%] where system = α7 integrin promoter and item = Cc1ccc(-c2csc(Nc3ccc(C(=O)O)cc3)[n+]2Cc2ccccc2)cc1.[Br-]
## Result 0.673
